# targetOrTestSystem: panel of more than 300 wild-type and mutant kinases (313 kinase panel) (Homo sapiens, UniProt P21709)
# Sequence (P21709 26-976, change not shown): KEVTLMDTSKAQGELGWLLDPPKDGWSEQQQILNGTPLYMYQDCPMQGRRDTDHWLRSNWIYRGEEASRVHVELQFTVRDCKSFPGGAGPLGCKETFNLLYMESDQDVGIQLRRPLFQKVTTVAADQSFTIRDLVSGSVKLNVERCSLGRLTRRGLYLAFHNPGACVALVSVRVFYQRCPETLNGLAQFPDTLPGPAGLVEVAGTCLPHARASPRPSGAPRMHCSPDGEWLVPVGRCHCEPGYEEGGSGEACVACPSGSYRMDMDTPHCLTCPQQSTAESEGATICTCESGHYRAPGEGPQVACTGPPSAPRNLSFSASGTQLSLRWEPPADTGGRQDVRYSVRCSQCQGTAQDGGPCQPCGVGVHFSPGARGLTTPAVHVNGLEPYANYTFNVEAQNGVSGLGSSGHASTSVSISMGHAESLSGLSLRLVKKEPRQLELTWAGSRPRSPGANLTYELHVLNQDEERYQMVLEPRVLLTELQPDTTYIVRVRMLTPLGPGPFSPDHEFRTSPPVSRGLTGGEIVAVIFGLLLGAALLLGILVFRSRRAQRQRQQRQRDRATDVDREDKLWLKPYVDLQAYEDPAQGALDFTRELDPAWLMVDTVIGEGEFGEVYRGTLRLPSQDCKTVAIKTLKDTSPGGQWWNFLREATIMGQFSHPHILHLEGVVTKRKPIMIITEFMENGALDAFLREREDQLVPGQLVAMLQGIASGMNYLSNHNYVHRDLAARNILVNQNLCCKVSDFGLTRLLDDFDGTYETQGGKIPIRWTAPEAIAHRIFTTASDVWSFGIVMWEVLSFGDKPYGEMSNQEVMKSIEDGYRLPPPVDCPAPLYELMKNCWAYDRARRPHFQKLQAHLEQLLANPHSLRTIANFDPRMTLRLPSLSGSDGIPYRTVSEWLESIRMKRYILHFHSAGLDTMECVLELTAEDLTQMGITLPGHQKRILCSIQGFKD
# protocolNotes: Kinase profiling in a biochemical assay panel (mobility shift assays and ELISA), %-inhibition at 1 μM; selectivity entropy
# conditionNotes: kinase EPHA1; compound at 1 μM
measuredParameter: %-inhibition of EPHA1 (%)
Give bare numbers, in %.

>  <compound>
COc1cc2c(Nc3ccc(Br)cc3F)ncnc2cc1OCC1CCN(C)CC1

>  <%-inhibition of EPHA1 (%)>
99

$$$$
>  <compound>
COc1cc2nccc(Oc3ccc(NC(=O)C4(C(=O)Nc5ccc(F)cc5)CC4)cc3)c2cc1OC [cabozantinib]

>  <%-inhibition of EPHA1 (%)>
84

$$$$
>  <compound>
COc1cc(Nc2c(C#N)cnc3cc(OCCCN4CCN(C)CC4)c(OC)cc23)c(Cl)cc1Cl

>  <%-inhibition of EPHA1 (%)>
3

$$$$

Quick one: give me %-inhibition of EPHA1 for each item below, same order please.
1. CC(=O)Nc1cccc(-n2c(=O)n(C3CC3)c(=O)c3c(Nc4ccc(I)cc4F)n(C)c(=O)c(C)c32)c1
2. Cc1cn(-c2cc(NC(=O)c3ccc(C)c(Nc4nccc(-c5cccnc5)n4)c3)cc(C(F)(F)F)c2)cn1
3. O=S(=O)(c1cccc2cnccc12)N1CCCNCC1
4. Cc1ccc(Nc2nccc(N(C)c3ccc4c(C)n(C)nc4c3)n2)cc1S(N)(=O)=O
5. Cc1nc(Nc2ncc(C(=O)Nc3c(C)cccc3Cl)s2)cc(N2CCN(CCO)CC2)n1

OUT:
1. -1.61
2. 61
3. 0.43
4. 54
5. 101

---

# targetOrTestSystem: panel of more than 300 wild-type and mutant kinases (313 kinase panel) (Homo sapiens)
# protocolNotes: Kinase profiling in a biochemical assay panel (mobility shift assays and ELISA), %-inhibition at 1 μM; selectivity entropy
# conditionNotes: kinase PKN1; 1 μM
measuredParameter: %-inhibition of PKN1 (%)
Answers are plain numbers, in %.

Previously resolved entries follow.
>  <molecule>
O=S(=O)(c1cccc2cnccc12)N1CCCNCC1

>  <targetOrTestSystem>
panel of more than 300 wild-type and mutant kinases (313 kinase panel) (Homo sapiens)

>  <unitAbbreviation>
%

>  <%-inhibition of PKN1>
55

$$$$
>  <molecule>
CC(C)(C)c1nc(-c2cccc(NS(=O)(=O)c3c(F)cccc3F)c2F)c(-c2ccnc(N)n2)s1

>  <targetOrTestSystem>
panel of more than 300 wild-type and mutant kinases (313 kinase panel) (Homo sapiens)

>  <unitAbbreviation>
%

>  <%-inhibition of PKN1>
-2.84

$$$$

Now for the molecule whose %-inhibition of PKN1 we want.
IN: Suppose we examine the molecule COc1cc2nccc(Oc3ccc(NC(=O)C4(C(=O)Nc5ccc(F)cc5)CC4)cc3)c2cc1OC [cabozantinib] ; what %-inhibition of PKN1 value has been reported?
OUT: 2.13

---

# targetOrTestSystem: panel of more than 300 wild-type and mutant kinases (313 kinase panel) (Homo sapiens)
# protocolNotes: Kinase profiling in a biochemical assay panel (mobility shift assays and ELISA), %-inhibition at 1 μM; selectivity entropy
# conditionNotes: kinase MARK1; compound at 1 μM
Please go through the items and note down their %-inhibition of MARK1.
Give bare numbers, in %.

# annotated cases, reported %-inhibition of MARK1 shown
>  <compound>
CNC(=O)c1cc(Oc2ccc(NC(=O)Nc3ccc(Cl)c(C(F)(F)F)c3)c(F)c2)ccn1 [regorafenib]

>  <%-inhibition of MARK1 / %>
-24

$$$$
>  <compound>
CO[C@H]1C[C@@H]2CC[C@@H](C)[C@@](O)(O2)C(=O)C(=O)N2CCCC[C@H]2C(=O)O[C@H]([C@H](C)C[C@@H]2CC[C@@H](OC(=O)C(C)(CO)CO)[C@H](OC)C2)CC(=O)[C@H](C)/C=C(\C)[C@@H](O)[C@@H](OC)C(=O)[C@H](C)C[C@H](C)/C=C/C=C/C=C/1C [temsirolimus]

>  <%-inhibition of MARK1 / %>
-5

$$$$
>  <compound>
Cc1ccc(Nc2nccc(N(C)c3ccc4c(C)n(C)nc4c3)n2)cc1S(N)(=O)=O [pazopanib]

>  <%-inhibition of MARK1 / %>
2.19

$$$$
>  <compound>
CO[C@H]1C[C@@H]2CC[C@@H](C)[C@@](O)(O2)C(=O)C(=O)N2CCCC[C@H]2C(=O)O[C@H]([C@H](C)C[C@@H]2CC[C@@H](OCCO)[C@H](OC)C2)CC(=O)[C@H](C)/C=C(\C)[C@@H](O)[C@@H](OC)C(=O)[C@H](C)C[C@H](C)/C=C/C=C/C=C/1C [everolimus]

>  <%-inhibition of MARK1 / %>
-0.63

$$$$
>  <compound>
CC(=O)Nc1cccc(-n2c(=O)n(C3CC3)c(=O)c3c(Nc4ccc(I)cc4F)n(C)c(=O)c(C)c32)c1 [trametinib]

>  <%-inhibition of MARK1 / %>
-17

$$$$
>  <compound>
O=S(=O)(c1cccc2cnccc12)N1CCCNCC1 [fasudil]

>  <%-inhibition of MARK1 / %>
-9

$$$$
>  <compound>
Cc1cn(-c2cc(NC(=O)c3ccc(C)c(Nc4nccc(-c5cccnc5)n4)c3)cc(C(F)(F)F)c2)cn1 [nilotinib]

>  <%-inhibition of MARK1 / %>
12

$$$$
>  <compound>
CCCS(=O)(=O)Nc1ccc(F)c(C(=O)c2c[nH]c3ncc(-c4ccc(Cl)cc4)cc23)c1F [vemurafenib]

>  <%-inhibition of MARK1 / %>
-9

$$$$
>  <compound>
COc1cc2c(Nc3ccc(Br)cc3F)ncnc2cc1OCC1CCN(C)CC1 [vandetanib]

>  <%-inhibition of MARK1 / %>
-14

$$$$
>  <compound>
COc1cc2nccc(Oc3ccc(NC(=O)C4(C(=O)Nc5ccc(F)cc5)CC4)cc3)c2cc1OC [cabozantinib]

>  <%-inhibition of MARK1 / %>
-1

$$$$

Give %-inhibition of MARK1 for each of the items listed below.
1. CC(C)(C)c1nc(-c2cccc(NS(=O)(=O)c3c(F)cccc3F)c2F)c(-c2ccnc(N)n2)s1 [dabrafenib]
2. C[C@@H](Oc1cc(-c2cnn(C3CCNCC3)c2)cnc1N)c1c(Cl)ccc(F)c1Cl [crizotinib]

OUT:
1: -15; 2: 27

---

# targetOrTestSystem: panel of more than 300 wild-type and mutant kinases (313 kinase panel) (Homo sapiens)
# protocolNotes: Kinase profiling in a biochemical assay panel (mobility shift assays and ELISA), %-inhibition at 1 μM; selectivity entropy
# conditionNotes: kinase MAPKAPK5; compound at 1 μM
Task for the reader: assign each of the following molecules its reported %-inhibition of MAPKAPK5.
Give bare numbers, in %.

>  <molecule>
O=S(=O)(c1cccc2cnccc12)N1CCCNCC1

>  <measuredParameter>
%-inhibition of MAPKAPK5

>  <testResult>
-1.65

$$$$

Batch of 3 molecules: report %-inhibition of MAPKAPK5 for each.
1. CC(=O)Nc1cccc(-n2c(=O)n(C3CC3)c(=O)c3c(Nc4ccc(I)cc4F)n(C)c(=O)c(C)c32)c1
2. CCCS(=O)(=O)Nc1ccc(F)c(C(=O)c2c[nH]c3ncc(-c4ccc(Cl)cc4)cc23)c1F
3. C[C@@H](Oc1cc(-c2cnn(C3CCNCC3)c2)cnc1N)c1c(Cl)ccc(F)c1Cl

OUT:
-2.22
12
-3.19

Consider the following items and state reported %-inhibition of MAPKAPK5 for each.
1. Cc1cn(-c2cc(NC(=O)c3ccc(C)c(Nc4nccc(-c5cccnc5)n4)c3)cc(C(F)(F)F)c2)cn1
2. CO[C@H]1C[C@@H]2CC[C@@H](C)[C@@](O)(O2)C(=O)C(=O)N2CCCC[C@H]2C(=O)O[C@H]([C@H](C)C[C@@H]2CC[C@@H](OC(=O)C(C)(CO)CO)[C@H](OC)C2)CC(=O)[C@H](C)/C=C(\C)[C@@H](O)[C@@H](OC)C(=O)[C@H](C)C[C@H](C)/C=C/C=C/C=C/1C
3. CNC(=O)c1cc(Oc2ccc(NC(=O)Nc3ccc(Cl)c(C(F)(F)F)c3)c(F)c2)ccn1
4. CO[C@H]1C[C@@H]2CC[C@@H](C)[C@@](O)(O2)C(=O)C(=O)N2CCCC[C@H]2C(=O)O[C@H]([C@H](C)C[C@@H]2CC[C@@H](OCCO)[C@H](OC)C2)CC(=O)[C@H](C)/C=C(\C)[C@@H](O)[C@@H](OC)C(=O)[C@H](C)C[C@H](C)/C=C/C=C/C=C/1C

OUT:
1. -4.26
2. -9
3. -9
4. -9

Please supply %-inhibition of MAPKAPK5 for each of the following items, keeping them in order.
1. COc1cc2nccc(Oc3ccc(NC(=O)C4(C(=O)Nc5ccc(F)cc5)CC4)cc3)c2cc1OC [cabozantinib]
2. COc1cc(Nc2c(C#N)cnc3cc(OCCCN4CCN(C)CC4)c(OC)cc23)c(Cl)cc1Cl
3. COc1cc2c(Nc3ccc(Br)cc3F)ncnc2cc1OCC1CCN(C)CC1
4. CS(=O)(=O)CCNCc1ccc(-c2ccc3ncnc(Nc4ccc(OCc5cccc(F)c5)c(Cl)c4)c3c2)o1
5. Cc1ccc(Nc2nccc(N(C)c3ccc4c(C)n(C)nc4c3)n2)cc1S(N)(=O)=O

OUT:
-5
0
-0.931
-2.68
-4
